Each recorded value in this set is attributed to the supplement of paper PMC10266784.

B1: library; numbered along this chain (parent)
chain: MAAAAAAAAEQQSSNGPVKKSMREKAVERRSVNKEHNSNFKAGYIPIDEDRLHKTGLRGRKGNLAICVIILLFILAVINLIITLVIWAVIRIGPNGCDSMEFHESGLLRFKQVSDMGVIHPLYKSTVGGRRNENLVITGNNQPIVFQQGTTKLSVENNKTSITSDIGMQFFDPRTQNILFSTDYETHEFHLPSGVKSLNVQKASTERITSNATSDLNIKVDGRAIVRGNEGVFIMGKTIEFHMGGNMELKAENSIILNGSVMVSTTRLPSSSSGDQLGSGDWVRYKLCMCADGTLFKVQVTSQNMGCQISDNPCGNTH

# Variants of: B1
# assay_notes: SGCB cell-surface expression functional score (HA stain, bin4 vs bin1, normalised to synonymous) (log10 ratio); higher = more cell-surface SGCB (functional)
readout: SGCB cell-surface expression functional score (log10)
Keep the answer to the number alone.

Here are 6 variants together with their reported answers.
>  <sequence_change>
I74S

>  <measured>
-0.05

$$$$
>  <sequence_change>
S264A

>  <measured>
0.51

$$$$
>  <sequence_change>
H36P

>  <measured>
0.32

$$$$
>  <sequence_change>
K202C

>  <measured>
-0.1

$$$$
>  <sequence_change>
E133M

>  <measured>
-0.21

$$$$
>  <sequence_change>
K124Y

>  <measured>
0.18

$$$$

Exercise: Param item = C307N ; retrieve measured SGCB cell-surface expression functional score (log10).
Key: -0.37

Exercise: Param item = S161P ; retrieve measured SGCB cell-surface expression functional score (log10).
Key: -1.15

Exercise: Param item = S125G ; retrieve measured SGCB cell-surface expression functional score (log10).
Key: 0.56
